Subject of test: ACE (angiotensin I-converting enzyme) (Homo sapiens, UniProt P12821)
Sequence (P12821 30-1306, species assumed): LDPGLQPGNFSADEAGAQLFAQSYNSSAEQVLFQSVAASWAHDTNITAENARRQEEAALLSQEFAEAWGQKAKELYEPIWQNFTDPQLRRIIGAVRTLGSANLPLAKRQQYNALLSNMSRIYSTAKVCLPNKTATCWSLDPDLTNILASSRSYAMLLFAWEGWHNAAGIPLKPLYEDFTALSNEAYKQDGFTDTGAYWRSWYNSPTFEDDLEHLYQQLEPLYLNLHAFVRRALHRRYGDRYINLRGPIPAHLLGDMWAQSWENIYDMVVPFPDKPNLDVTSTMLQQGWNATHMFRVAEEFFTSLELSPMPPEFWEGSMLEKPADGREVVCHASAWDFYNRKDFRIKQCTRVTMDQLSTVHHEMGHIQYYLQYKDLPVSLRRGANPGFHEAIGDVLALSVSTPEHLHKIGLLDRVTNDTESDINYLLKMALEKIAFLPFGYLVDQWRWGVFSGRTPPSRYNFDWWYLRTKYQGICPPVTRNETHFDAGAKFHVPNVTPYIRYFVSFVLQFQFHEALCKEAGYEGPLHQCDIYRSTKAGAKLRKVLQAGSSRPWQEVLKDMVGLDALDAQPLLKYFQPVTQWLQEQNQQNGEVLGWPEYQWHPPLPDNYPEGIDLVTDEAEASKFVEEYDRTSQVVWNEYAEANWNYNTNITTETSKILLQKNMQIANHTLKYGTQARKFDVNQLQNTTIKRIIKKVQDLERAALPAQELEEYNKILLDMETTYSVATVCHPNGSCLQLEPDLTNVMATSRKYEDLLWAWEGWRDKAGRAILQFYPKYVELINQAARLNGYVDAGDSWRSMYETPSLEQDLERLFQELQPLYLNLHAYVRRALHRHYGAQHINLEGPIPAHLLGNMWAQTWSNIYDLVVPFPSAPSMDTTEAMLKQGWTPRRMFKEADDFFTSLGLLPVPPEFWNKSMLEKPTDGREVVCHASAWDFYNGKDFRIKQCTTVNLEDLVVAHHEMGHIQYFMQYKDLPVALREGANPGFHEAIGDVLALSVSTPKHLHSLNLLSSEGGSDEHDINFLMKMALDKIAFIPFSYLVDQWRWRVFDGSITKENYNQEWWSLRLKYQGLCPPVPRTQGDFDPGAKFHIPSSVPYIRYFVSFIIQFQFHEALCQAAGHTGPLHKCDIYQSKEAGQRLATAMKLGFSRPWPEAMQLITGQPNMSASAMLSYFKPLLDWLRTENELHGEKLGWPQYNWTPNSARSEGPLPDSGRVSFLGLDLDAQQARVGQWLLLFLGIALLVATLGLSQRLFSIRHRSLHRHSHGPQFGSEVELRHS
Assay info: ACE inhibition activity
Format: biochemical
No end group written: not given here.
Parameter: IC50 (µM)
The response must be a number in µM with no trailing unit.

Q: May I ask what IC50 has been recorded for DNRYY [DNRYY, Asp-Asn-Arg-Tyr-Tyr] ?
A: 3.72
